Cited source for all entries: ChEMBL document CHEMBL1955849

target: Carbonic anhydrase 12 (Homo sapiens, UniProt O43570)
Sequence (O43570 whole entry): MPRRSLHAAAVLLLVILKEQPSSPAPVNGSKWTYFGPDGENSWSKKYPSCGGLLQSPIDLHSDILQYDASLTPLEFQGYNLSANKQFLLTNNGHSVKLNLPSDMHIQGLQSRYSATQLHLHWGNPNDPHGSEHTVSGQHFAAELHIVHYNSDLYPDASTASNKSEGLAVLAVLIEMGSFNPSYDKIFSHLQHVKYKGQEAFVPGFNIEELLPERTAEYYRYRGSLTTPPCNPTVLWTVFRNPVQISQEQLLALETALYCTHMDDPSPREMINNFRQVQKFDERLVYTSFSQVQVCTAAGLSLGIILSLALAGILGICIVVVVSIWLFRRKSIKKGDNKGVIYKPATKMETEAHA
Let's look at some compounds and their measured Ki.
// return numeric value only (unit: nM, not printed)

>>> assayresult("NS(=O)(=O)c1ccc(C(=O)NNC(=S)N[C@@H]2O[C@H](CO)[C@@H](O)[C@H](O)[C@H]2O)cc1")
8.6
>>> assayresult("CC(=O)OC[C@H]1O[C@@H](NC(=S)NCCc2ccc(S(N)(=O)=O)cc2)[C@H](OC(C)=O)[C@@H](OC(C)=O)[C@@H]1O[C@H]1O[C@H](COC(C)=O)[C@@H](OC(C)=O)[C@H](OC(C)=O)[C@H]1OC(C)=O")
8.4
>>> assayresult("NS(=O)(=O)c1ccc(CNC(=S)N[C@@H]2O[C@H](CO)[C@@H](O)[C@H](O)[C@H]2O)cc1")
8.2
>>> assayresult("NS(=O)(=O)c1ccc(CNC(=S)N[C@@H]2O[C@H](CO)[C@H](O)[C@H](O)[C@H]2O)cc1")
111
>>> assayresult("NS(=O)(=O)c1ccc(NC(=S)N[C@@H]2O[C@H](CO)[C@@H](O)[C@H](O)[C@H]2O)cc1")
8.2

[in] Return Ki measured with Carbonic anhydrase 12 (Homo sapiens, UniProt O43570) given this compound: CC(=O)OC[C@H]1O[C@@H](NC(=S)NNC(=O)c2ccc(S(N)(=O)=O)cc2)[C@H](OC(C)=O)[C@@H](OC(C)=O)[C@@H]1OC(C)=O
[out] 7.3

[in] Also, CC(=O)OC[C@H]1O[C@@H](NC(=S)Nc2ccc(S(N)(=O)=O)cc2)[C@H](OC(C)=O)[C@@H](OC(C)=O)[C@H]1OC(C)=O please.
[out] 45.6

[in] Try this compound too: NS(=O)(=O)c1ccc(C(=O)NNC(=S)N[C@@H]2O[C@H](CO)[C@@H](O[C@@H]3O[C@H](CO)[C@H](O)[C@H](O)[C@H]3O)[C@H](O)[C@H]2O)cc1
[out] 8.7

----------
Below are compounds with their Ki as measured on Carbonic anhydrase 1 (Homo sapiens, UniProt P00915).
Sequence (P00915 whole entry): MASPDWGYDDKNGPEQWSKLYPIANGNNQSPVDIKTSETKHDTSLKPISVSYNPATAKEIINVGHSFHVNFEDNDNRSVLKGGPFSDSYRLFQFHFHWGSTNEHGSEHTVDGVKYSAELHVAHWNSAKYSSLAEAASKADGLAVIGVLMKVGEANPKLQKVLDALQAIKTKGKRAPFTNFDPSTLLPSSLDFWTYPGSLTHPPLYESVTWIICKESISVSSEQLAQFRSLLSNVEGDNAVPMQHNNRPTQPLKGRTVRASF
Numeric answer plus unit only.

>>> assayresult("NS(=O)(=O)c1ccc(NC(=S)N[C@@H]2O[C@H](CO)[C@@H](O)[C@H](O)[C@H]2O)cc1")
"7.68 µM"
>>> assayresult("NS(=O)(=O)c1ccc(CCNC(=S)N[C@@H]2O[C@H](CO)[C@@H](O[C@H]3O[C@H](CO)[C@@H](O)[C@H](O)[C@H]3O)[C@H](O)[C@H]2O)cc1")
"4.26 µM"
>>> assayresult("CC(=O)OC[C@H]1O[C@@H](NC(=S)NCCc2ccc(S(N)(=O)=O)cc2)[C@H](OC(C)=O)[C@@H](OC(C)=O)[C@@H]1O[C@H]1O[C@H](COC(C)=O)[C@@H](OC(C)=O)[C@H](OC(C)=O)[C@H]1OC(C)=O")
"3.72 µM"
>>> assayresult("NS(=O)(=O)c1ccc(CCNC(=S)N[C@@H]2O[C@H](CO)[C@@H](O)[C@H](O)[C@H]2O)cc1")
"0.009 µM"
>>> assayresult("NS(=O)(=O)c1ccc(CNC(=S)N[C@@H]2O[C@H](CO)[C@H](O)[C@H](O)[C@H]2O)cc1")
"6.42 µM"

[in] Looking for the measured Ki of NS(=O)(=O)c1ccc(NC(=S)N[C@@H]2O[C@H](CO)[C@@H](O[C@@H]3O[C@H](CO)[C@H](O)[C@H](O)[C@H]3O)[C@H](O)[C@H]2O)cc1 , can you help?
[out] 7.98 µM

[in] // repeat for CC(=O)OC[C@H]1O[C@@H](NC(=S)Nc2ccc(S(N)(=O)=O)cc2)[C@H](OC(C)=O)[C@@H](OC(C)=O)[C@H]1OC(C)=O and report
[out] 6.71 µM

[in] How about CC(=O)OC[C@H]1O[C@@H](O[C@H]2[C@H](OC(C)=O)[C@@H](OC(C)=O)[C@H](NC(=S)NCc3ccc(S(N)(=O)=O)cc3)O[C@@H]2COC(C)=O)[C@H](OC(C)=O)[C@@H](OC(C)=O)[C@H]1OC(C)=O ?
[out] 0.11 µM

[in] Now give it for CC(=O)OC[C@H]1O[C@@H](NC(=S)NCCc2ccc(S(N)(=O)=O)cc2)[C@H](OC(C)=O)[C@@H](OC(C)=O)[C@H]1OC(C)=O too.
[out] 0.1 µM

[in] // same read-out, input: CC(=O)OC[C@H]1O[C@@H](NC(=S)NCCc2ccc(S(N)(=O)=O)cc2)[C@H](OC(C)=O)[C@@H](OC(C)=O)[C@@H]1OC(C)=O
[out] 5.51 µM

[in] Repeat for the following compound: CC(=O)OC[C@H]1O[C@@H](NC(=S)Nc2ccc(S(N)(=O)=O)cc2)[C@H](OC(C)=O)[C@@H](OC(C)=O)[C@@H]1OC(C)=O
[out] 4.93 µM

[in] Please answer likewise for CC(=O)OC[C@H]1O[C@@H](NC(=S)NNC(=O)c2ccc(S(N)(=O)=O)cc2)[C@H](OC(C)=O)[C@@H](OC(C)=O)[C@@H]1O[C@H]1O[C@H](COC(C)=O)[C@@H](OC(C)=O)[C@H](OC(C)=O)[C@H]1OC(C)=O
[out] 2.94 µM

[in] Request: CC(=O)OC[C@H]1O[C@@H](NC(=S)NNC(=O)c2ccc(S(N)(=O)=O)cc2)[C@H](OC(C)=O)[C@@H](OC(C)=O)[C@@H]1OC(C)=O
[out] 3.77 µM

[in] Quick one: NS(=O)(=O)c1ccc(NC(=S)N[C@@H]2O[C@H](CO)[C@H](O)[C@H](O)[C@H]2O)cc1
[out] 6.84 µM

[in] Try this compound next: NS(=O)(=O)c1ccc(CCNC(=S)N[C@@H]2O[C@H](CO)[C@@H](O[C@@H]3O[C@H](CO)[C@H](O)[C@H](O)[C@H]3O)[C@H](O)[C@H]2O)cc1
[out] 0.1 µM
